Listing of recorded GI50 by entry.
# Tested on: RXF 631
# experiment.notes: NCI tumour cell line growth inhibition, 48 h
Activity calls are given as the source filed them. Cut-off read from the data, not from the text of the source: active = GI50 up to about 1.1 µM and inactive = higher.

| compound | GI50 |
| --- | --- |
| O=C(c1ccc(Cl)cc1Cl)C1[C@H]2C(=O)N(c3ccc(Cc4ccc(N5C(=O)[C@@H]6ON(c7ccccc7)C(C(=O)c7ccc(Cl)cc7Cl)[C@@H]6C5=O)cc4)cc3)C(=O)[C@H]2ON1c1ccccc1 (stereo partly specified) | > 50 µM (inactive) |
| CN(C)/C=N/c1nc2ncn(CCOC(=O)c3ccccc3)c2c(=O)[nH]1 | > 100 µM (inactive) |
| CN1C=C(C(N)=O)C2CC(O)[C@@](NC(=O)CS(N)(=O)=O)(C(=O)O)C2C1 (stereo partly specified) | 2.98 µM (inactive) |
| CC1CC2C3CC(F)C4=CC(=O)C=CC4(C)C3(F)C(O)CC2(C)C1(O)C(=O)CO (stereo unspecified) | > 100 µM (inactive) |
| CC(=O)OC1COC(N2C(=O)C(=O)c3cc(Br)ccc32)C(OC(C)=O)C1OC(C)=O (stereo unspecified) | > 100 µM (inactive) |

What GI50 appears in the records for this compound with RXF 631? COc1ccc2[nH]c3c(c2c1)[C@H](c1ccccc1)C[C@@H]1C(=O)N(c2ccccc2)C(=O)[C@H]31
45.1 µM (inactive)
